Test system: Wolbachia pipientis
Test: Anti-Wolbachia Cell-Based Screen
Type: functional
Set-up: scale not given: in the data most compounds retested in dose-response had high values
Details: 5 µM
Hit rate of the full screen: of about 48,000 compounds, about 13,000 (27%) showed an effect of 50% or more. The list shows a part of the results.
# key: entry, value: Percent Effect
The reply should be a number in %, with the unit left off.

Some solved cases for reference:
{"columns": ["molecule", "tgt", "observed-measurement"],
 "data": [
  ["CCN1C(=O)C[C@@H]2[C@@H]1CCN2S(=O)(=O)c1ccccc1", "Wolbachia pipientis", -17.79],
  ["O=C(O)C(F)(F)F.O=C(O)C(F)(F)F.O=C(O)c1cc2c(nc1-c1ccoc1)CCN(CC1CCOC1)CC2 (stereo not given)", "Wolbachia pipientis", 7.736],
  ["O=C1OCCN1Cc1cc(C(F)(F)F)ccc1F", "Wolbachia pipientis", -10.76],
  ["Cc1nc(C(=O)N2CCC(Cc3cnc4[nH]ccc4c3)C2)co1 (stereo not given)", "Wolbachia pipientis", -2.794],
  ["O=C(c1cscn1)N1C[C@@H]2[C@@H](C1)OCC(=O)N2CC1CCCC1", "Wolbachia pipientis", -7.986],
  ["O=C(O)C(F)(F)F.O=S(=O)(c1ccc(F)cc1)N1CC[C@H]2[C@H]1CCN2c1ncccn1", "Wolbachia pipientis", 5.126]
]}

# Percent Effect (molecule: CCC(CO)N(Cc1cccc(O)c1)Cc1ccccc1C (stereo not given) ) is -1.955

# Percent Effect (molecule: Cn1ccc(C(=O)N2CCC(Cc3cnc4[nH]ccc4c3)C2)n1 (stereo not given) ) is 135.4

# Percent Effect (molecule: O=C(c1cscn1)N1CCC(Cc2cnc3[nH]ccc3c2)C1 (stereo not given) ) is 91.07

# Percent Effect (molecule: "Cc1noc(-c2ccc(N(C)Cc3ccncc3C)nc2)n1" ) is -8.712
